test_summary: qHTS profiling for inhibitors of Plasmodium falciparum proliferation (AID 504749);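 further: 0% = DMSO vehicle and full inhibition = artemisinin control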
experimental_context: P. falciparum in erythrocytes, SYBR Green DNA, 72 h; at 28.7 µM (top of the series); parasite line B
Inconclusive results are not listed.
Reported activity, negative = inhibition values for the following compounds.
Numeric only. Scale: %

Example compounds with recorded activity, negative = inhibition:
Quick one: activity, negative = inhibition of CC1(C)SC2C(N3C(=O)C(c4ccccc4)NC3(C)C)C(=O)N2C1C(=O)O (stereo not given) ? 9.57

Quick one: activity, negative = inhibition of "CCOC(=O)[C@H](CCc1ccccc1)N[C@@H](C)C(=O)N1[C@H](C(=O)O)C[C@H]2CCC[C@@H]21" ? 4.68

Quick one: activity, negative = inhibition of CN(C)CCc1c[nH]c2ccc(CC3COC(=O)N3)cc12 (stereo not given) ? 12.7

Quick one: activity, negative = inhibition of CCCC(=O)O[C@]1(C(=O)CO)CCC2[C@@H]3CCC4=CC(=O)CC[C@]4(C)C3C(O)C[C@]21C (stereo not given in full) ? 17.5

Next:
Quick one: activity, negative = inhibition of CNC1C(OC2C(O[C@@H]3C(O)C(O)[C@@H](N=C(N)N)C(O)C3N=C(N)N)OC(C)[C@@]2(O)CO)OC(CO)C(O)C1O (stereo not given in full) ? 13.4

Quick one: activity, negative = inhibition of CNC1CC(N)[C@H](O)[C@@H](O[C@@H]2OC(CO)C3OC4(OC(C(N)CO)C(O)C(O)C4O)O[C@@H]3[C@H]2O)C1O (stereo not given in full) ? -26.8

Quick one: activity, negative = inhibition of "O=C1O[C@@H]([C@@H](O)CO)[C@@H](O)[C@H]1O" ? 14.7

Quick one: activity, negative = inhibition of O=C1OC(CO)C(O)C(O)C1O (stereo not given) ? -2.03

Quick one: activity, negative = inhibition of CC(=O)N[C@@H]1C(O)OC(CO)C(O)C1O (stereo not given in full) ? 14.7

Quick one: activity, negative = inhibition of "CC(=O)O[C@H]1C[C@@]2(C)[C@H](C[C@@H](O)[C@H]3[C@@]4(C)CC[C@@H](O)[C@@H](C)[C@H]4CC[C@@]32C)C1=C(CCC=C(C)C)C(=O)O" ? 2.16

Value source: PubChem BioAssay (NCATS)
